Reference source for all entries: patent US20260217712A1

test: Thermodynamic solubility in simulated media and buffers; type: physicochemical; conditions: pH 7.4 buffer, 25 °C, pH 7.4, aqueous buffer, thermodynamic from solid, pH 7.4 buffer; 25° C./24 h; read-out: Solubility pH 7.4
recorded_metric: solubility at 24 h (µg/mL)
Give bare numbers, in µg/mL.

// query Tell me its solubility at 24 h given Cc1cc(Nc2cc(N)ncn2)c(=O)n2c1C(=O)NC21CCC2(CC2)CC1 [Pattern 11] as the entry.
// result 1

----------
assay: Competitive slurries of Pattern 3 and Pattern 11, XRPD; assay type: physicochemical; conditions: competitive slurry, 20 vol; solvent and temperature per sample
recorded_metric: XRPD after 7 days

Example results:
compound="Cc1cc(Nc2cc(N)ncn2)c(=O)n2c1C(=O)NC21CCC2(CC2)CC1 [Pattern 36-9]" recorded_metric="XRPD after 7 days" value_measured="Patterns 3 and 11"
compound="Cc1cc(Nc2cc(N)ncn2)c(=O)n2c1C(=O)NC21CCC2(CC2)CC1 [Pattern 36-14]" recorded_metric="XRPD after 7 days" value_measured="Patterns 3 and 11"
compound="Cc1cc(Nc2cc(N)ncn2)c(=O)n2c1C(=O)NC21CCC2(CC2)CC1 [Pattern 36-3]" recorded_metric="XRPD after 7 days" value_measured="Patterns 3 and 11"
compound="Cc1cc(Nc2cc(N)ncn2)c(=O)n2c1C(=O)NC21CCC2(CC2)CC1 [Pattern 36-13]" recorded_metric="XRPD after 7 days" value_measured="Patterns 3 and 11"
compound="Cc1cc(Nc2cc(N)ncn2)c(=O)n2c1C(=O)NC21CCC2(CC2)CC1 [Pattern 36-1]" recorded_metric="XRPD after 7 days" value_measured="Pattern 11"

// query Specify measured XRPD after 7 days for Cc1cc(Nc2cc(N)ncn2)c(=O)n2c1C(=O)NC21CCC2(CC2)CC1 [Pattern 36-12] .
// result Pattern 11
